system: T. cruzi-infected H9C2 cardiomyocytes, high-content imaging; test: intracellular T. cruzi amastigote inhibition, imaging, H9C2 host cardiomyocytes, host toxicity (AID 1159565); settings: measured here: amastigotes per cell;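 further: infected cells incubated 72 h after plating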
pIC50: −log10 of the molar value.
Cut-off 6 on pIC50, inclusive. At or above means fulfilled; below means not fulfilled.

compound: CCC(CC)C(=O)Nc1ccc(-c2nnc(-c3ccc(OC)cc3)o2)cc1
group.label: not fulfilled

compound: Cc1cc(NC(=O)C2CCCCC2)n(-c2nc3c(c(=O)[nH]2)CCC3)n1
group.label: fulfilled

compound: COc1cccc(-c2c(C)nn(-c3nc(N)nc(-c4ccccn4)n3)c2N)c1
group.label: fulfilled

compound: Nc1nc(-c2ccccn2)nc(-n2nc(-c3ccccc3)cc2N)n1
group.label: fulfilled

compound: CC(c1ccccn1)N(C)Cc1nc2ccccc2n1C(C)C (stereo unspecified)
group.label: not fulfilled

compound: NC(=O)c1cc(NC(=O)c2ccccc2COc2ccccc2)ccc1Cl
group.label: not fulfilled

====

tested on: T. cruzi-infected H9C2 cardiomyocytes, high-content imaging; assay: intracellular T. cruzi amastigote inhibition, imaging, H9C2 host cardiomyocytes, host toxicity (AID 1159565); conditions: measured here: H9C2 host cell toxicity;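 further: infected cells incubated 72 h after plating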
pIC50: −log10 of the molar value.
Below, each of the compounds is paired with its reported pIC50 value.

compound: COCc1cc(Nc2ccccc2)nc(-c2ccccn2)n1
pIC50: 5.40
--
compound: Cc1nn(-c2nc3ccccc3s2)c2c1C(c1ccc(OCC(N)=O)cc1)SCC(=O)N2 (stereo not given)
pIC50: < 4.30
--
compound: COc1ccc(OC)c2c(=O)c(Cc3ccccc3)c(C)[nH]c12
pIC50: < 4.30
--
compound: Cc1cn[nH]c1C1CCCN(Cc2nc3ccccc3n2C)C1 (stereo not given)
pIC50: < 4.30
--
compound: Cc1cc2cc(CNc3ccc4c(c3)OCO4)c(=O)n(CCO)c2cc1C
pIC50: < 4.30
--
compound: Cc1cccc(NS(=O)(=O)c2ccc3c(c2)C(=O)c2cc(S(=O)(=O)Nc4cccc(C)c4C)ccc2-3)c1C
pIC50: 4.49
--
compound: CC(c1cc(Cl)cc(Cl)c1)N(C)c1ncc2c(N)nc(N)nc2n1 (stereo not given)
pIC50: 5.10
--
compound: Cc1[nH]nc2c1C(c1ccc(OCc3ccccc3F)cc1)SCC(=O)N2 (stereo not given)
pIC50: < 4.30
--
compound: C[C@@H](Oc1cc(-n2cnc3ccc(CC(O)CO)cc32)sc1C(N)=O)c1ccccc1Cl (stereo not given in full)
pIC50: 6.89
--
compound: Cc1cc2nc(CN(C)Cc3ncccc3C)[nH]c2cc1C
pIC50: 4.89
--
compound: CCOc1ccc(NC(=O)C=Cc2ccc(CC)o2)cc1
pIC50: < 4.30
--
compound: O=C(COc1ccccc1)Nc1ccccc1C(=O)Nc1nccs1
pIC50: < 4.30
--
compound: CCOc1ccc(N(C)S(=O)(=O)c2ccc3[nH]cc(C(=O)NC4CCCC4)c(=O)c3c2)cc1
pIC50: < 4.30
--
compound: O=C(Nc1ncc([N+](=O)[O-])s1)C1CC1
pIC50: < 4.30
--
compound: O=C(NCCc1csc(-c2ccc(F)cc2)n1)c1ccco1
pIC50: < 4.30

====

system: T. cruzi-infected H9C2 cardiomyocytes, high-content imaging; experiment: intracellular T. cruzi amastigote inhibition, imaging, H9C2 host cardiomyocytes, host toxicity (AID 1159565); details: measured here: amastigotes per cell;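 further: infected cells incubated 72 h after plating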
Below, each of the compounds is paired with its reported IC50 value.

compound: Cc1ccc(NC(=O)c2ccc(Cl)c(NC(=O)c3ccc([N+](=O)[O-])cc3)c2)cc1
qualifying.sign: =
IC50 / µM: 0.2

compound: O=c1cc(NCCCNCc2c[nH]c3ccc(Br)cc23)[nH]c2ccccc12
qualifying.sign: =
IC50 / µM: 32

compound: O=C1NCc2cccc(Nc3nc(NC4CCC(O)CC4)ncc3Br)c21 (centres undefined)
qualifying.sign: =
IC50 / µM: 0.4

compound: Clc1cc(Br)ccc1OCCCCn1ccnc1
qualifying.sign: =
IC50 / µM: 0.32

compound: CC(C)COC(=O)Nc1ccc(N2CCC(CNS(=O)(=O)c3ccccc3)CC2)c(F)c1
qualifying.sign: =
IC50 / µM: 7.9

compound: O=C(C1CCCCC1)N1CCN(c2nnc(-c3ccccc3)c3ccccc23)CC1
qualifying.sign: =
IC50 / µM: 0.4

compound: Cc1ccc(S(=O)(=O)Nc2ccc(CN3CCN(C(=O)c4cccc(C#N)c4)CC3)cc2)cc1
qualifying.sign: =
IC50 / µM: 0.4

compound: O=C(Nc1nc(-c2ccc(F)cc2)cs1)c1ccc([N+](=O)[O-])s1
qualifying.sign: =
IC50 / µM: 0.16

compound: CC(C)Oc1cccc(N2CCC(C(=O)N3CCCN(C(C)C)CC3)CC2)c1
qualifying.sign: =
IC50 / µM: 0.25

compound: COc1ncc(-c2ccc3nccc(-c4ccncc4)c3c2)cc1NS(=O)(=O)C1CC1
qualifying.sign: =
IC50 / µM: 2

compound: CN(C)S(=O)(=O)c1cccc(CSc2nnc(-c3ccc4c(c3)OCO4)o2)c1
qualifying.sign: =
IC50 / µM: 0.05

compound: O=c1cc(NCCCNC2CCOc3c(I)cc(Cl)cc32)[nH]c2ccccc12 (centres undefined)
qualifying.sign: =
IC50 / µM: 0.16

compound: Cc1ccnc(NS(=O)(=O)c2ccc(NC(=O)c3ccc([N+](=O)[O-])s3)cc2)n1
qualifying.sign: =
IC50 / µM: 6.3

compound: CNC(=O)C1Cc2ccccc2N1C(=O)Cc1ccc(OC)cc1 (centres undefined)
qualifying.sign: >
IC50 / µM: 50

compound: CNC(=O)C1Cc2ccccc2N1C(=O)Cc1ccc(F)cc1 (centres undefined)
qualifying.sign: >
IC50 / µM: 50

compound: O=c1[nH]c(C=Cc2cccc(OCCOc3ccccc3)c2)nc(O)c1[N+](=O)[O-]
qualifying.sign: =
IC50 / µM: 0.16

compound: COc1ccc2ncc(Cl)c(CCN3CC[C@H](NCc4cc5c(cn4)OCS5)[C@@H](O)C3)c2n1
qualifying.sign: =
IC50 / µM: 0.1

compound: Cc1cc2ncn(-c3ccc([N+](=O)[O-])cc3C#N)c2cc1C
qualifying.sign: =
IC50 / µM: 0.79

compound: CC1(C)CCC(=Cc2ccc(Cl)cc2)CC1(O)Cn1ccnc1 (centres undefined)
qualifying.sign: =
IC50 / µM: 0.005
